- test_system: BaF3 cell lines stably transfected with kinase EGFR L858R (Homo sapiens, UniProt P00533, L858R, cells depend on it)
- Sequence (P00533 whole entry L858R): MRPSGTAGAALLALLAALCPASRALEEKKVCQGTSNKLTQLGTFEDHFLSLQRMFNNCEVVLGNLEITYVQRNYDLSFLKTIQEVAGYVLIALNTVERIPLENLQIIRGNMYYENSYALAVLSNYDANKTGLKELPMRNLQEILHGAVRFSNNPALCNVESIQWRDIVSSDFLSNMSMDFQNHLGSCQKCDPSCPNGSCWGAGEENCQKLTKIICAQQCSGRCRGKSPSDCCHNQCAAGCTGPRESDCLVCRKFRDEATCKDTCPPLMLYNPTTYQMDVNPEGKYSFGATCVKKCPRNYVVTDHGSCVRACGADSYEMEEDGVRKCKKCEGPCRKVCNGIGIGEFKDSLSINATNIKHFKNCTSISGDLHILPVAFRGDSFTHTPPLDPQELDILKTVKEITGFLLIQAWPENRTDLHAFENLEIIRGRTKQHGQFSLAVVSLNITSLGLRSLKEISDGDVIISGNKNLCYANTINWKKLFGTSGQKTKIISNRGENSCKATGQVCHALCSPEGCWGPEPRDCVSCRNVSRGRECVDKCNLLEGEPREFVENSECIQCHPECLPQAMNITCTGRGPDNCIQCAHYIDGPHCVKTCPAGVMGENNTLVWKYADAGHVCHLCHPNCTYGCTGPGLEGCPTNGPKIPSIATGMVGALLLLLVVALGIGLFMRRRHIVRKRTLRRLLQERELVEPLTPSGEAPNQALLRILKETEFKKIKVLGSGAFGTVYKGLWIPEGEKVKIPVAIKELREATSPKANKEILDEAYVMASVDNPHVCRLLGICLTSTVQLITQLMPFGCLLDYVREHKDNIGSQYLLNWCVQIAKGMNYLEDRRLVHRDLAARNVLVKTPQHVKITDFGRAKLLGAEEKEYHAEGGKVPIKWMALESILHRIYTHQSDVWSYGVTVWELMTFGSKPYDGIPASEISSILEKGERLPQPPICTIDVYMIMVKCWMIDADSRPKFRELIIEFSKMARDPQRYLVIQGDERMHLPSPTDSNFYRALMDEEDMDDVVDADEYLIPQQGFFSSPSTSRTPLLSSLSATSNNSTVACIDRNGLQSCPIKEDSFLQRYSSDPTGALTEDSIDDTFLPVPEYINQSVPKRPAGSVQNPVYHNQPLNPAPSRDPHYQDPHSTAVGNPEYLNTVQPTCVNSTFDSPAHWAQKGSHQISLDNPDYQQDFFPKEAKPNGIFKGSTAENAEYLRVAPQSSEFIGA
- assay_method_text: Growth inhibition of BaF3 cell line stably transfected with kinase EGFR L858R (MTS)
- Type: cell-based
- study_conditions: 48 h, read-out: growth inhibitory activity IC50, L858R
outcome_measure: GI50

# example entries with known answers
- compound: "C=Cc1cnc(Nc2cc(CC)c(N3CCC(N4CCN(C)CC4)CC3)cc2OC)nc1Nc1ccc2nccnc2c1N(C)S(=O)(=O)C(F)(F)F [II-8]"
  outcome_measure: "GI50"
  result: "50 to 500 nM"
- compound: "C=Cc1cnc(Nc2ccc(N3CCC(N4CCN(C)CC4)CC3)cc2OC)nc1Nc1ccc2nccnc2c1S(=O)(=O)C(C)C [III-18]"
  outcome_measure: "GI50"
  result: "50 to 500 nM"
- compound: "C=Cc1cnc(Nc2cc(CC)c(N3CCC(N4CCN(C)CC4)CC3)cc2OC)nc1Nc1ccc2nccnc2c1S(=O)(=O)NC(C)C [IV-18]"
  outcome_measure: "GI50"
  result: "50 to 500 nM"
- compound: "C=Cc1cnc(Nc2cc(CC)c(N3CCC(N4CCNCC4)CC3)cc2OC)nc1Nc1ccc2nccnc2c1N(C)S(C)(=O)=O [II-52]"
  outcome_measure: "GI50"
  result: "50 to 500 nM"
- compound: "C=Cc1cnc(Nc2cc(CC)c(N3CCC(N4CCN(C)CC4)CC3)cc2OC)nc1Nc1ccc2nccnc2c1N(C)S(=O)(=O)CC [II-9]"
  outcome_measure: "GI50"
  result: "50 to 500 nM"
- compound: "C=Cc1cnc(Nc2cnn(CC)c2)nc1Nc1ccc2nccnc2c1N(C)S(C)(=O)=O [II-66]"
  outcome_measure: "GI50"
  result: "500 to 2500 nM"

[in] Request the reported GI50 associated with C=Cc1cnc(Nc2cc(CC3CC3)c(N3CCC(N4CCN(C)CC4)CC3)cc2OC)nc1Nc1ccc2nccnc2c1S(C)(=O)=O [III-13]
[out] 500 to 2500 nM
